# Target or test system: ACACB; further: reference of the scale not given here
# Experimental protocol: pooled miR-30 sensor sort-seq; sequence = guide strand
# Measurement conditions: shRNA
Criterion: sensor-assay potency score (higher = more potent) meeting or surpassing 0.2. Met: label 1. Not met: label 0.

TTCGGTAACTGTCAACCTCTTC	label 0
TAAGAAAGCAACTCCATTCTTG	label 0
TTCTTGTCTTCTTTGGAGGGGG	label 0
TGTATCTGGACTCTCCTCCTTC	label 0
TACTTGTCTGAAAAGGATCGGG	label 0
TTGATCTTGACCTCAGCCTGTA	label 1

Here's the next entry for you.
Query :: Form field: sensor-assay potency score (higher = more potent) at least 0.2? Entry: `TTTATCAGATCTTTCTTTCGGA`
Result :: label 1
